target of assay: human N-type Ca channel (Homo sapiens)
Sequence (Q00975 whole entry): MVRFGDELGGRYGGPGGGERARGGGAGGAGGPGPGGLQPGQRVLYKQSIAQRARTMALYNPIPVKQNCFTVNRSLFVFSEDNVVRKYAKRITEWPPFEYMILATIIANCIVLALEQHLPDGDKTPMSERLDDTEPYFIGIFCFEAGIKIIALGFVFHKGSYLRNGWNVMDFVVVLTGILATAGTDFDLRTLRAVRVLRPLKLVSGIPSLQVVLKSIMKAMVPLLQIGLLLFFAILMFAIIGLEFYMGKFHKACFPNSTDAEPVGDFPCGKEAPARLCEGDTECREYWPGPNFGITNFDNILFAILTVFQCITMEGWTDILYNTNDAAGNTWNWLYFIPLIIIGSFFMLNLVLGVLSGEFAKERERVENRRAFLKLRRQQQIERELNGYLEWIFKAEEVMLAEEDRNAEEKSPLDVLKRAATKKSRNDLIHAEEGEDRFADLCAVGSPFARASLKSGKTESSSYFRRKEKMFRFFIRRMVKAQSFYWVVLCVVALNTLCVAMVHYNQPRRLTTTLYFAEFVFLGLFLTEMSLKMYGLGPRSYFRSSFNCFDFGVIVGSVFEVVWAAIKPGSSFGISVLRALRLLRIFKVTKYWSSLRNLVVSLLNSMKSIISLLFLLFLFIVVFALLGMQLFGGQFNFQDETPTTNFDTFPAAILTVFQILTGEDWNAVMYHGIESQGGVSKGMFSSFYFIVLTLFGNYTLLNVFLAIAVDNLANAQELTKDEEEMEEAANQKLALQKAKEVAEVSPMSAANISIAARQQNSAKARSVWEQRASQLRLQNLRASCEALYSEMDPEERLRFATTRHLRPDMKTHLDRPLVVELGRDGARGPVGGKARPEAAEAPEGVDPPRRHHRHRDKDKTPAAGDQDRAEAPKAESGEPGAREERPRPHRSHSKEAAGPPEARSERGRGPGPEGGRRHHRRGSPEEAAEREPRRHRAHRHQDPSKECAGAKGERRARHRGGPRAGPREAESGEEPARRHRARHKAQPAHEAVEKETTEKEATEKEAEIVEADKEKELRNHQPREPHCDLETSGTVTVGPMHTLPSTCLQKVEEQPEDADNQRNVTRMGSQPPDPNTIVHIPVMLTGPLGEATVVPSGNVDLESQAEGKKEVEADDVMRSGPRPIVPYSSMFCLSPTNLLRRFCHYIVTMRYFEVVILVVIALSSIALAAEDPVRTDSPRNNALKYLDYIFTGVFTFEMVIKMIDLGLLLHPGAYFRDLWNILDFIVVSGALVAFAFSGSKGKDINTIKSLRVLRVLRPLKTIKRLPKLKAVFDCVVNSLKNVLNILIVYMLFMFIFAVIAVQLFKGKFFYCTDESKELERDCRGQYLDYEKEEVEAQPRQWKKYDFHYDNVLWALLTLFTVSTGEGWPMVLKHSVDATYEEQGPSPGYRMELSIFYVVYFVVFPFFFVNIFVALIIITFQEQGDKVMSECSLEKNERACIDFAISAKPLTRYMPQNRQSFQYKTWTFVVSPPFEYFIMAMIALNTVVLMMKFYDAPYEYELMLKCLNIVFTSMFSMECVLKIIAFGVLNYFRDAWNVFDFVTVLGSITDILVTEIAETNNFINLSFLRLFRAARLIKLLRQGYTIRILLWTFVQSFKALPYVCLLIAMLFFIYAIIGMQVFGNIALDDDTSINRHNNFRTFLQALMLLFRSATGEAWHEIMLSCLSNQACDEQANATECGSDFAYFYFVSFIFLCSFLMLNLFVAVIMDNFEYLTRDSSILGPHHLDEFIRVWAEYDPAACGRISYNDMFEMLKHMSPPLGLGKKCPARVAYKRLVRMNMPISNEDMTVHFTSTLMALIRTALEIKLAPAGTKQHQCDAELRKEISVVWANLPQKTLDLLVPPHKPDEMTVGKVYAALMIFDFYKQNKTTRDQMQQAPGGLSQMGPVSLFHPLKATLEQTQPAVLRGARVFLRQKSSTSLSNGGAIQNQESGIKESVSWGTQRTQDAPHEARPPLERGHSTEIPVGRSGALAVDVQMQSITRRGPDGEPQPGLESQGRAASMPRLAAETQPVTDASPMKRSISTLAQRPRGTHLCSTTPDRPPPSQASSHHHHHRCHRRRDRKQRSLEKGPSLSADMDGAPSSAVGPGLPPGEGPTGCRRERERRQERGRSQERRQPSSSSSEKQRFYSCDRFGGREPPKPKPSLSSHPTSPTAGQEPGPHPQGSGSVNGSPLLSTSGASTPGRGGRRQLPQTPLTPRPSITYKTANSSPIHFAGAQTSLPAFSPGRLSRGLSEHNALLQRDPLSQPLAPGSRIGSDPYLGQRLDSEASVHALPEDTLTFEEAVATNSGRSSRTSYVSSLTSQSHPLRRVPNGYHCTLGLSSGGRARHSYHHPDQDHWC
Sequence (P54284 whole entry partner): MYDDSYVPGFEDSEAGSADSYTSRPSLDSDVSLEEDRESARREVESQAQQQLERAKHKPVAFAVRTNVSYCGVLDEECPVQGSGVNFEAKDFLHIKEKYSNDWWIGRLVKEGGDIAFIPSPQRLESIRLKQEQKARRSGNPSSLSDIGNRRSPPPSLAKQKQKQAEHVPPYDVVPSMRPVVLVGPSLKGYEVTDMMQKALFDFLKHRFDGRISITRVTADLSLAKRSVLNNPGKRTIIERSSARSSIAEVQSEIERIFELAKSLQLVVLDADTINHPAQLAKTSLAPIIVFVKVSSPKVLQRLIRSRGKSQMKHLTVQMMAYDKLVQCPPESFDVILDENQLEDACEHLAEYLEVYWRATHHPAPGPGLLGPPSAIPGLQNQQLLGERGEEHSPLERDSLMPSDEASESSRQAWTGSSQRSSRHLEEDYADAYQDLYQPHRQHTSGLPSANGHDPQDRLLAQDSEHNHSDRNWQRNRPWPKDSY
Sequence (P54289 25-956 partner limits assumed): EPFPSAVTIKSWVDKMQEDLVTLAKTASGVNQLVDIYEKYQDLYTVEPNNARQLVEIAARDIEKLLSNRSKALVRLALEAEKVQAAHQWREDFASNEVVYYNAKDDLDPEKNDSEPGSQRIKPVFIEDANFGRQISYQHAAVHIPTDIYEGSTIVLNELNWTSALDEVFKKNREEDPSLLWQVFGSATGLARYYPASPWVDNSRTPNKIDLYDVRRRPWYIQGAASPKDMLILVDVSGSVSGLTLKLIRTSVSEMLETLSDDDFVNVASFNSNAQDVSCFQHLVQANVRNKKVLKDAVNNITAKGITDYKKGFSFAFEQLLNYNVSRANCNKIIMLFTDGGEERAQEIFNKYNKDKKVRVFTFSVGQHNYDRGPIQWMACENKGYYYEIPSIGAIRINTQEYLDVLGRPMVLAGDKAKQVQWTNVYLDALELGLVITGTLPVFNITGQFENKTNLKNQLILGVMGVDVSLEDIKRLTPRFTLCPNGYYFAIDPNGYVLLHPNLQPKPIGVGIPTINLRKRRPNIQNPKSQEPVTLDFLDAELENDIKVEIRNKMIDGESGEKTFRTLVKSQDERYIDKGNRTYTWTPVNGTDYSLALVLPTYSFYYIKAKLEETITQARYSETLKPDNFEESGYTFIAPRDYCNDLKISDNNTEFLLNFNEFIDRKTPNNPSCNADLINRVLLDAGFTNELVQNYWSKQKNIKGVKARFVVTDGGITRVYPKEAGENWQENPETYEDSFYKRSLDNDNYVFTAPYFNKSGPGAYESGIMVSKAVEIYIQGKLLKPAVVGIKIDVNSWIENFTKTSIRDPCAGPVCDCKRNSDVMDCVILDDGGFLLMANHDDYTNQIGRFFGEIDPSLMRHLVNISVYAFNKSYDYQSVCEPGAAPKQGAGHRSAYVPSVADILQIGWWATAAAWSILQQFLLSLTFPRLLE
Sequence (P54289 957-1103 partner limits assumed): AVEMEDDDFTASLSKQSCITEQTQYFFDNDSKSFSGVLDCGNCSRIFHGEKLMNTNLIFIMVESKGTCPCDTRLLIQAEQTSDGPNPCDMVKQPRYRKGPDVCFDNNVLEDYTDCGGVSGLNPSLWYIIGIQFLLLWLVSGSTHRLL
test protocol: Electrophysiological response, QPatch (depolarization -80 mV to +20 mV)
test conditions: N Type IC50 Data Qpatch Pulse=15, Pulse=15; concentration range 0.01-0.3 µM
attribute measured: IC50 (µM)

[A] COc1ncccc1-c1nc(C2CC(C)(C)OC(C)(C)C2)cn1Cc1ccccc1Cl [Compound 27]
[B] COc1ccccc1-c1nc(C2CC(C)(C)OC(C)(C)C2)cn1-c1ccc(OC(F)F)cc1 [Compound 61]
Query :: Look at A and B . Which one has the lower recorded IC50 number? Field: selected label. Fill in the label of the entry you choose.
Result :: B
(B: 1.05 µM, A: 1.9 µM)
